Just for reference, PubChem BioAssay AID431 is where these values come from.

# experimentSummary: viability loss of HPDE-C7K cells – cell-based, fluorescence, HTS, primary screen (AID 431);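 further: 0% = DMSO solvent wells and 100% = doxorubicin-treated wells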
# measurementContext: HPDE-C7K KRASV12 cells, Alamar Blue viability, 48 h; at 10 µM; active compounds read high
The whole screen tested about 63,000 compounds, of which about 1,100 (1.7%) were called active. Shown is part of a subset that was picked to be rich in actives. Potency and affinity values are given separately.
metric: cytotoxicity (%)
Write the answer as a number in %, unit excluded.

Form: compound = c1coc(-c2nc3ccccc3nc2-c2ccco2)c1 ; cytotoxicity = -6.2

Looking up COc1ccc(C2=NOC(C(=O)NCCCN3CCOCC3)C2)cc1 (stereo unspecified) , I found its cytotoxicity recorded as 1.1

Recorded result, O=C(O)c1cc(S(=O)(=O)N2CCCCCC2)ccc1Cl , cytotoxicity: -3.9

Record COc1ccc2nc(NC(=O)C3CCN(S(=O)(=O)c4cnc[nH]4)CC3)sc2c1 . Reported cytotoxicity: 14.5

Reported cytotoxicity ( N#Cc1nc(-c2ccco2)oc1NCc1ccc(F)cc1 ) = 10.2

Record Cc1cc(C)c2nc(SCC#N)cc(C)c2c1 , field cytotoxicity: 15.7

Quick note, cytotoxicity for c1coc(-c2nc3nc4ccccc4n3nc2-c2ccco2)c1 landed at 67.4

Form field cytotoxicity, entry O=c1c2ccccc2[nH]c(=S)n1CCN1CCN(Cc2ccccc2)CC1 : 0.6

The compound listed as O=S(=O)(NCc1cccs1)c1cccc2cccnc12 shows cytotoxicity equal to 6.5

The recorded cytotoxicity for entry COc1ccc(OC)c(C2CC(=O)c3c([nH]c(C(=O)OC(C)C)c3C)C2)c1 (stereo unspecified) equals 51.6

For record N#Cc1ccc(NC(=O)c2cc3cc4c5c(c3oc2=N)CCCN5CCC4)cc1 the listed cytotoxicity is 12.7

Form: compound = Nc1ccc(-n2c(N)c(C(=O)NCc3ccc4c(c3)OCO4)c3nc4ccccc4nc32)cc1 ; cytotoxicity = 35.9

Briefly, cytotoxicity measured for O=C(Nc1ccc(N2CCN(Cc3ccccc3Cl)CC2)cc1)c1cccnc1 : 16.7

So, COc1ccc(C(=O)CCN2CCCCCC2)cc1 ? Its cytotoxicity was -7.8

Recorded result, O=C(c1ccccc1)c1ccc(OCC(O)CN2CCOCC2)cc1 (stereo unspecified) , cytotoxicity: 10.8

The compound listed as Cc1cc(NC(c2cccnc2)c2ccc3cccnc3c2O)no1 (stereo unspecified) has a reported cytotoxicity of 24.3

Entry Cc1nnc(SCC(=O)Nc2nsc(-c3ccccc3)n2)s1 — recorded cytotoxicity = 11.4

Sample COc1cccc(NC(=O)C2CCN(c3ncccn3)CC2)c1 ; cytotoxicity observed: 3

====

Overview of reported cytotoxicity across a group of compounds:
# experimentSummary: viability loss of HPDE-C7K cells – cell-based, fluorescence, HTS, primary screen (AID 431);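 further: 0% = DMSO solvent wells and 100% = doxorubicin-treated wells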
# measurementContext: HPDE-C7K KRASV12 cells, Alamar Blue viability, 48 h; at 10 µM; active compounds read high
Among all 63,000 compounds or so, about 1,100 (1.7%) were called active. The list comes from a sample in which actives are over-represented; it also holds close analogues and randomly drawn compounds. Measured potencies and affinities stand elsewhere.
Number only, in %; omit the unit.

[[record]]
compound = "O=C1N(CC(=O)N2CCc3ccccc32)CCN1Cc1ccccc1Cl"
reportedvalue = -7.2


Recorded cytotoxicity (compound CCCCN(Cc1ccccc1)c1ncnc2nc[nH]c12 ): 6.8

Reported cytotoxicity ( Clc1ccccc1CN(Cc1ccccc1)c1ncnc2nc[nH]c12 ) = 115

Value of measured cytotoxicity for the entry COC(=O)C1=C(C)n2nnnc2NC1c1cc2ccccc2o1 (centres undefined) : 4.4

====

# experimentSummary: viability loss of HPDE-C7K cells – cell-based, fluorescence, HTS, primary screen (AID 431);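 further: 0% = DMSO solvent wells and 100% = doxorubicin-treated wells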
# measurementContext: HPDE-C7K KRASV12 cells, Alamar Blue viability, 48 h; at 10 µM; active compounds read high
The campaign covered roughly 63,000 compounds. About 1,100 (1.7%) were called active. This is one part of a sample in which actives are shown more often than they occur. Potency and affinity values are given separately.
metric: cytotoxicity (%)
Respond numerically; units are % and should not be typed.

[[record]]
molecule = "COc1ccc(-n2nnnc2SCC(N)=O)cc1"
metric = "cytotoxicity"
reportedvalue = -7.1

[[record]]
molecule = "O=C1C(=C(O)c2ccccc2)C(=O)c2ccccc21"
metric = "cytotoxicity"
reportedvalue = 2

[[record]]
molecule = "COc1cc(C)c(C(C)C)cc1S(=O)(=O)N1CCN(C)CC1"
metric = "cytotoxicity"
reportedvalue = -21.8


# cytotoxicity (molecule: COc1cc(C)c(CNc2ccc(OC)c(OC)c2)cc1C ) is 21.6

Summary for this molecule, CCc1nnc(NC(=O)CSc2nc(C)c3c(c2C#N)CCCC3)s1 : cytotoxicity is 75.3

Entry under test: O=C(Nc1ccc2c(c1)OCCO2)C1CCCN(S(=O)(=O)c2cnc[nH]2)C1 (stereo not given) . Its cytotoxicity was -1.8

For CCOC(=O)c1cnc(SCC(=O)Nc2sc(C)c(C)c2C#N)nc1N the molecule record lists cytotoxicity as -2.2

====

# experimentSummary: viability loss of HPDE-C7K cells – cell-based, fluorescence, HTS, primary screen (AID 431);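 further: 0% = DMSO solvent wells and 100% = doxorubicin-treated wells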
# measurementContext: HPDE-C7K KRASV12 cells, Alamar Blue viability, 48 h; at 10 µM; active compounds read high
Hit rate of the full screen: of about 63,000 compounds, about 1,100 (1.7%) were called active. The full list was thinned out, with actives kept by preference. Potency and affinity values are given separately.
Here, each record is paired with measured cytotoxicity data.
Respond numerically; units are % and should not be typed.

Use the examples below as a reference point.
[[record]]
molecule = "COc1ccc(C(=O)O)cc1F"
metric = "cytotoxicity"
valueunit = "%"
reportedvalue = 2.5

[[record]]
molecule = "COCCn1nnnc1SCC(=O)N1CCCCC1"
metric = "cytotoxicity"
valueunit = "%"
reportedvalue = -12.2

[[record]]
molecule = "COc1ccc(N=C2SC(C(=O)Nc3ccc4c(c3)OCO4)CC(=O)N2C)cc1 (stereo not drawn)"
metric = "cytotoxicity"
valueunit = "%"
reportedvalue = -25


Attention now turns to another entry.
Per the record, Nc1c(C(=O)NCCN2CCOCC2)c2nc3ccccc3nc2n1CCc1ccccc1F has cytotoxicity of 7.5

====

# experimentSummary: viability loss of HPDE-C7K cells – cell-based, fluorescence, HTS, primary screen (AID 431);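 further: 0% = DMSO solvent wells and 100% = doxorubicin-treated wells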
# measurementContext: HPDE-C7K KRASV12 cells, Alamar Blue viability, 48 h; at 10 µM; active compounds read high
The whole screen tested about 63,000 compounds, of which about 1,100 (1.7%) were called active. The entries come from a sample that favours actives as a whole. Potency and affinity values are given separately.
metric: cytotoxicity (%)
Number in %, nothing else.

Below are worked cases with known answers.
[[record]]
molecule = "COc1cc(C2C3C(=O)N(c4ccccc4)C(=O)C3ON2c2ccccc2)ccc1O (stereo not drawn)"
valueunit = "%"
reportedvalue = 3.7

[[record]]
molecule = "COc1cc(C2C3C(=O)N(c4ccc(F)cc4)C(=O)C3ON2c2ccccc2)ccc1O (stereo not drawn)"
valueunit = "%"
reportedvalue = -1.5

[[record]]
molecule = "COc1ccc(S(=O)(=O)N(CC(=O)O)c2ccccc2)cc1"
valueunit = "%"
reportedvalue = 8.5

[[record]]
molecule = "COc1ccc2c(c1)c1ncnc(N3CCN(Cc4ccc5c(c4)OCO5)CC3)c1n2C"
valueunit = "%"
reportedvalue = 43.1

[[record]]
molecule = "CCc1nnc(NC(=O)CSc2nc3c(cc2C#N)CCCC3)s1"
valueunit = "%"
reportedvalue = 8.4


Record summary for CCC(=O)Nc1nnc(SCC(=O)Nc2ccc(F)cc2)s1 : reported cytotoxicity = -4.3

Noted for CCCCc1ccc(NC(=O)COCC)cc1 : its cytotoxicity reads -2.8

According to the records, this molecule O=C(Nc1c(C(=O)NCc2ccco2)cnn1-c1ccccc1)c1cccc(F)c1 displays cytotoxicity of 7.2

====

# experimentSummary: viability loss of HPDE-C7K cells – cell-based, fluorescence, HTS, primary screen (AID 431);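 further: 0% = DMSO solvent wells and 100% = doxorubicin-treated wells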
# measurementContext: HPDE-C7K KRASV12 cells, Alamar Blue viability, 48 h; at 10 µM; active compounds read high
Out of some 63,000 compounds screened, about 1,100 (1.7%) were called active. For the sample, actives were picked, then their nearest neighbours and some compounds at random. Measured potencies and affinities stand elsewhere.
metric: cytotoxicity (%)
Unit % implied. Number only.

# compound CCOC(=O)c1c(NC(=O)CSc2n[nH]c(N)n2)sc(CC)c1C ; its cytotoxicity = 0

cytotoxicity for CCN1C(=O)c2cccc3c(NC(=O)c4cccc(N5C(=O)CCC5=O)c4)ccc1c23 is -10.7

The recorded cytotoxicity for entry Nc1c(C(=O)NCCN2CCOCC2)c2nc3ccccc3nc2n1CCc1ccccc1 equals 18.1

Measured cytotoxicity of c1coc(-c2nc(-c3ccco3)c(-c3ccco3)nc2-c2ccco2)c1 : -1.8

The compound COCCOC(=O)c1[nH]c2c(c1C)C(=O)CC(c1cc(OC)ccc1OC)C2 (centres undefined) showed cytotoxicity equal to -6.8

====

cytotoxicity overview
# experimentSummary: viability loss of HPDE-C7K cells – cell-based, fluorescence, HTS, primary screen (AID 431);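 further: 0% = DMSO solvent wells and 100% = doxorubicin-treated wells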
# measurementContext: HPDE-C7K KRASV12 cells, Alamar Blue viability, 48 h; at 10 µM; active compounds read high
In all, about 63,000 compounds went through this assay and about 1,100 (1.7%) were called active. The sample holds actives, similar compounds and a random draw of the others, so the mix is not that of the screen. Potency and affinity values are given separately.
Unit % implied. Number only.

[[record]]
compound = "CCN1C(=O)c2cccc3c(NC(=O)c4ccc5c(c4)OCCO5)ccc1c23"
reportedvalue = 95.1


COc1ccc(C(O)C(CN2CCOCC2)c2ccccc2)cc1F (centres undefined) has a reported cytotoxicity of -8.6

Record c1ccc(C(CN2CCOCC2)c2ccccc2)cc1 . Reported cytotoxicity: -15.2

Lookup result for CCOC(=O)c1[nH]c(C)c(/C(O)=C2\C(=O)C(=O)N(CCCn3ccnc3)C2c2ccncc2)c1C (centres undefined) ; measured cytotoxicity: 11.3

GET /value?item= COC(=O)c1[nH]c2c(c1C)C(=O)CC(c1cc(OC)ccc1OC)C2 (centres undefined) &field=cytotoxicity returns 18.9

Record O=C(c1ccc(F)cc1)C1CCN(CCn2c(=O)[nH]c3ccccc3c2=O)CC1 . Reported cytotoxicity: 5.6

Lab note: measured cytotoxicity of O=C(Nc1cnn(Cc2ccc(Cl)cc2)c1)c1cnccn1 was -2.7

Per the record, COc1ccc(C(=O)C(c2ccccc2)N2CCOCC2)cc1 (centres undefined) has cytotoxicity of -2.4

// COc1ccc(OC)c(NC(=O)CSc2nnc(CNC(=O)COc3ccc(Cl)cc3)o2)c1 : cytotoxicity value = -3
